# Experiment summary: TNS assay, apparent pKa of cationic lipid in 1:57 SNALP
# Settings: 1:57 SNALP formulation containing encapsulated APOB siRNA
Readout label: pKa

# example entries with known answers
[
  {
    "Molecule": "CCCCC/C=C\\C/C=C\\CCCCCCCCOCC(COCC(CCN(C)C)OCCCCCCCC/C=C\\C/C=C\\CCCCC)OCCCCCCCC/C=C\\C/C=C\\CCCCC (stereo not drawn)",
    "pKa": "~5.85"
  },
  {
    "Molecule": "CCCCC/C=C\\C/C=C\\CCCCCCCCOCC(COCC(CN(C)C)OCCCCCCCC/C=C\\C/C=C\\CCCCC)OCCCCCCCC/C=C\\C/C=C\\CCCCC (stereo not drawn)",
    "pKa": "~5.35"
  },
  {
    "Molecule": "CC(C)CCCC(C)CCCC(C)CCCC(C)CCC1(CCC(C)CCCC(C)CCCC(C)CCCC(C)C)OCC(CCN(C)C)O1 (stereo not drawn)",
    "pKa": "~5.95"
  }
]

Prompt: Supply reported pKa belonging to this molecule: CC(C)CCCC(C)CCCC(C)CCCC(C)CCC1(CCC(C)CCCC(C)CCCC(C)CCCC(C)C)OCC(CN(C)C)CO1 (stereo not drawn)
Response: ~5.5

Prompt: Fill in pKa for record CCCCC/C=C\C/C=C\CCCCCCCCC1(CCCCCCCC/C=C\C/C=C\CCCCC)OCC(CCN2CCCC(O)C2)O1 (stereo not drawn) [DLin-C2K Pip (30H)]
Response: ~6.05

Prompt: For CC(C)CCCC(C)CCCC(C)CCCC(C)CCC1(CCC(C)CCCC(C)CCCC(C)CCCC(C)C)OCC(CCCN(C)C)O1 (stereo not drawn) , write its pKa.
Response: ~6.25

Prompt: Supply measured pKa of CCCCC/C=C\C/C=C\C/C=C\C/C=C\CCCCOCC(CN(C)C)OCCCC/C=C\C/C=C\C/C=C\C/C=C\CCCCC (stereo not drawn) in your reply.
Response: ~5.65

Prompt: # return recorded pKa for entry CC(C)CCCC(C)CCCC(C)CCCC(C)CCOCC(CN(C)C)OCCC(C)CCCC(C)CCCC(C)CCCC(C)C (stereo not drawn)
Response: 5.5

Prompt: Quick one: give measured pKa for CCCCCCCC/C=C/CCCCCCCC1(CCCCCCC/C=C/CCCCCCCC)OCC(CCN(C)C)O1 (stereo not drawn)
Response: ~6.05
